Sourced from patent US20160318933A1

target: human brain-derived dopamine D4 receptor (Homo sapiens, UniProt P21917); construct: expressed in transfected cells; host or cells: CHO (CHO-K1) or HEK293 cells; assay: Agonistic activity in G protein dependent pathway of dopamine D4 receptor (aequorin intracellular calcium luminescence, FDSS); format: cell-based; conditions: read-out: Maximal activity on D4 receptor (%)

{"COMPOUND": "Cc1cccnc1-c1cc2n(n1)CCN(Cc1cnn3c1CCCC3)C2 [Example 88]", "ASSAYED TARGET": "human brain-derived dopamine D4 receptor (Homo sapiens, UniProt P21917)", "Emax / %": 54}
{"COMPOUND": "Cc1cccnc1-c1cc2n(n1)CCN(Cc1n[nH]c3c(C)cccc13)C2 [Example 104]", "ASSAYED TARGET": "human brain-derived dopamine D4 receptor (Homo sapiens, UniProt P21917)", "Emax / %": 67}
{"COMPOUND": "Fc1c(-c2ccccn2)nn2c1CN(Cc1ccccc1)CCC2 [Example 33]", "ASSAYED TARGET": "human brain-derived dopamine D4 receptor (Homo sapiens, UniProt P21917)", "Emax / %": 41}
{"COMPOUND": "Cc1cccnc1-c1cc2n(n1)CCN(Cc1c3ccccc3nn1C)C2 [Example 149]", "ASSAYED TARGET": "human brain-derived dopamine D4 receptor (Homo sapiens, UniProt P21917)", "Emax / %": 53}
{"COMPOUND": "Cc1cccnc1-c1cc2n(n1)CCN(Cc1cc3ccccc3n1C)C2 [Example 146]", "ASSAYED TARGET": "human brain-derived dopamine D4 receptor (Homo sapiens, UniProt P21917)", "Emax / %": 48}
{"COMPOUND": "Cc1c(-c2ccccn2)nn2c1CN(Cc1ccc(CF)nc1)CC2 [Example 134]", "ASSAYED TARGET": "human brain-derived dopamine D4 receptor (Homo sapiens, UniProt P21917)", "Emax / %": 62}
{"COMPOUND": "Cc1cccnc1-c1cc2n(n1)CCN(Cc1ccc(C(F)(F)F)c(C#N)c1)C2 [Example 86]", "ASSAYED TARGET": "human brain-derived dopamine D4 receptor (Homo sapiens, UniProt P21917)", "Emax / %": 85}
{"COMPOUND": "Cc1cccnc1-c1cc2n(n1)CCN(Cc1nn(C)c3ccccc13)C2 [Example 158]", "ASSAYED TARGET": "human brain-derived dopamine D4 receptor (Homo sapiens, UniProt P21917)", "Emax / %": 74}
{"COMPOUND": "Cc1c(-c2ncccc2F)nn2c1CN(Cc1ccc(C(F)(F)F)cc1)CC2 [Example 83]", "ASSAYED TARGET": "human brain-derived dopamine D4 receptor (Homo sapiens, UniProt P21917)", "Emax / %": 72}
{"COMPOUND": "Fc1cccnc1-c1cc2n(n1)CCN(Cc1cnc(C(F)(F)F)nc1)C2 [Example 198]", "ASSAYED TARGET": "human brain-derived dopamine D4 receptor (Homo sapiens, UniProt P21917)", "Emax / %": 33}
{"COMPOUND": "Cc1cccnc1-c1cc2n(n1)CCN(Cc1ccc(C#N)cc1)C2 [Example 57]", "ASSAYED TARGET": "human brain-derived dopamine D4 receptor (Homo sapiens, UniProt P21917)", "Emax / %": 77}
{"COMPOUND": "Cc1cccnc1-c1cc2n(n1)CCN(Cc1ccc3cn[nH]c3c1)C2 [Example 34]", "ASSAYED TARGET": "human brain-derived dopamine D4 receptor (Homo sapiens, UniProt P21917)", "Emax / %": 73}
{"COMPOUND": "Cc1c(-c2ccccn2)nn2c1CN(Cc1ccccc1)CCC2 [Example 32]", "ASSAYED TARGET": "human brain-derived dopamine D4 receptor (Homo sapiens, UniProt P21917)", "Emax / %": 52}
{"COMPOUND": "Cc1ncc(CN2CCn3nc(-c4ccccn4)cc3C2)c(N)n1 [Example 22]", "ASSAYED TARGET": "human brain-derived dopamine D4 receptor (Homo sapiens, UniProt P21917)", "Emax / %": 62}
{"COMPOUND": "Fc1ccc(CN2CCn3nc(-c4ccccn4)cc3C2)cc1 [Example 2]", "ASSAYED TARGET": "human brain-derived dopamine D4 receptor (Homo sapiens, UniProt P21917)", "Emax / %": 83}
{"COMPOUND": "Cc1nc2c(CN3CCn4nc(-c5ccccn5)cc4C3)cccc2[nH]1 [Example 42]", "ASSAYED TARGET": "human brain-derived dopamine D4 receptor (Homo sapiens, UniProt P21917)", "Emax / %": 50}
{"COMPOUND": "Cc1cccnc1-c1cc2n(n1)CCN(Cc1cc3c(cn1)OCCC3)C2 [Example 136]", "ASSAYED TARGET": "human brain-derived dopamine D4 receptor (Homo sapiens, UniProt P21917)", "Emax / %": 52}
{"COMPOUND": "Cc1ncc(CN2CCn3nc(-c4ccccn4)c(F)c3C2)c(N)n1 [Example 141]", "ASSAYED TARGET": "human brain-derived dopamine D4 receptor (Homo sapiens, UniProt P21917)", "Emax / %": 56}
{"COMPOUND": "Cc1cccc(CN2CCn3nc(-c4ncccc4F)c(C)c3C2)n1 [Example 126]", "ASSAYED TARGET": "human brain-derived dopamine D4 receptor (Homo sapiens, UniProt P21917)", "Emax / %": 91}
{"COMPOUND": "Cn1c(CN2CCn3nc(-c4ncccc4F)cc3C2)nc2ccccc21 [Example 164]", "ASSAYED TARGET": "human brain-derived dopamine D4 receptor (Homo sapiens, UniProt P21917)", "Emax / %": 64}
{"COMPOUND": "Cc1cccnc1-c1cc2n(n1)CCN(Cc1ccc(Cl)cc1)C2 [Example 56]", "ASSAYED TARGET": "human brain-derived dopamine D4 receptor (Homo sapiens, UniProt P21917)", "Emax / %": 78}
{"COMPOUND": "Cc1cccnc1-c1cc2n(n1)CCN(Cc1ccc(C(F)F)cc1)C2 [Example 80]", "ASSAYED TARGET": "human brain-derived dopamine D4 receptor (Homo sapiens, UniProt P21917)", "Emax / %": 70}
{"COMPOUND": "N#Cc1cc(CN2CCn3nc(-c4ccccn4)cc3C2)ccc1F [Example 36]", "ASSAYED TARGET": "human brain-derived dopamine D4 receptor (Homo sapiens, UniProt P21917)", "Emax / %": 77}
{"COMPOUND": "Cc1ccc(CN2CCn3nc(-c4ncccc4F)c(C)c3C2)cn1 [Example 121]", "ASSAYED TARGET": "human brain-derived dopamine D4 receptor (Homo sapiens, UniProt P21917)", "Emax / %": 84}
{"COMPOUND": "Cc1cccc(CN2CCn3nc(-c4ncccc4C)cc3C2)c1 [Example 54]", "ASSAYED TARGET": "human brain-derived dopamine D4 receptor (Homo sapiens, UniProt P21917)", "Emax / %": 80}
{"COMPOUND": "Cc1cccnc1-c1cc2n(n1)CCN(Cc1c[nH]c3ccccc13)C2 [Example 147]", "ASSAYED TARGET": "human brain-derived dopamine D4 receptor (Homo sapiens, UniProt P21917)", "Emax / %": 59}
{"COMPOUND": "Cc1cccnc1-c1cc2n(n1)CCN(Cc1ccc(C(F)(F)F)nc1N)C2 [Example 105]", "ASSAYED TARGET": "human brain-derived dopamine D4 receptor (Homo sapiens, UniProt P21917)", "Emax / %": 79}
{"COMPOUND": "Nc1nc(C(F)(F)F)ccc1CN1CCn2nc(-c3ccccn3)cc2C1 [Example 21]", "ASSAYED TARGET": "human brain-derived dopamine D4 receptor (Homo sapiens, UniProt P21917)", "Emax / %": 59}
{"COMPOUND": "Cc1ccc(CN2CCn3nc(-c4ncccc4F)cc3C2)nc1 [Example 109]", "ASSAYED TARGET": "human brain-derived dopamine D4 receptor (Homo sapiens, UniProt P21917)", "Emax / %": 68}
{"COMPOUND": "Cc1cccnc1-c1cc2n(n1)CCN(Cc1ccc(OC(F)(F)F)cc1F)C2 [Example 66]", "ASSAYED TARGET": "human brain-derived dopamine D4 receptor (Homo sapiens, UniProt P21917)", "Emax / %": 52}

* * *

Biological target: human brain-derived dopamine D4 receptor (Homo sapiens, UniProt P21917)
Sequence (P21917 1-419): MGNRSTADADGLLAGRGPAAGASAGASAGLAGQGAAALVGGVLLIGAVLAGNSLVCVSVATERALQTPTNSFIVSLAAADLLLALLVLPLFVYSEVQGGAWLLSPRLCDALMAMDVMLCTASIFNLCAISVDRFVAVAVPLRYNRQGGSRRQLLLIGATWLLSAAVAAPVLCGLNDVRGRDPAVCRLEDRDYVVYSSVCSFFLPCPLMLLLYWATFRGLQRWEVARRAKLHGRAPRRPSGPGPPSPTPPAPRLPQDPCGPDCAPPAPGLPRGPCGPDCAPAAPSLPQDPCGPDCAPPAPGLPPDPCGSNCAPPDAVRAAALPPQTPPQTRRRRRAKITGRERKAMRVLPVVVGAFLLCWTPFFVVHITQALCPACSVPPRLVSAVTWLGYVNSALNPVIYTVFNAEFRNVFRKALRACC
Assay: Agonistic activity in G protein dependent pathway of dopamine D4 receptor (aequorin intracellular calcium luminescence, FDSS)
Details: concentration required to achieve a 50% response of Emax; CHO-K1 or HEK293 cells transfected with D4 receptor
Each record is given class 1 if its reported EC50 is strictly below 50 nM. Records at or above 50 nM are given class 0.

{"SMI": "Nc1ncc(CN2CCn3nc(-c4ncccc4F)cc3C2)cn1", "ANSWER LABEL": "class 0"}
{"SMI": "Cc1ccc2c(CN3CCn4nc(-c5ncccc5C)cc4C3)n[nH]c2c1", "ANSWER LABEL": "class 0"}
{"SMI": "Fc1cccnc1-c1cc2n(n1)CCN(Cc1ccc3c(n1)CCC3)C2", "ANSWER LABEL": "class 1"}
{"SMI": "Fc1cccnc1-c1cc2n(n1)CCN(Cc1cnc(C(F)(F)F)nc1)C2", "ANSWER LABEL": "class 1"}
{"SMI": "Fc1ccc(CN2CCn3nc(-c4ccccn4)cc3C2)cc1", "ANSWER LABEL": "class 1"}
{"SMI": "Cc1c(-c2ncccc2F)nn2c1CN(Cc1ccc3c(n1)CCCC3)CC2", "ANSWER LABEL": "class 1"}
{"SMI": "Cc1cccnc1-c1cc2n(n1)CCN(Cc1cccc(C#N)c1)C2", "ANSWER LABEL": "class 1"}
{"SMI": "Cc1ccc(CN2CCn3nc(-c4ncccc4F)c(C)c3C2)cn1", "ANSWER LABEL": "class 1"}
{"SMI": "Cc1c(-c2ccccn2)nn2c1CN(Cc1ccc(C(F)(F)F)nc1N)CC2", "ANSWER LABEL": "class 0"}
{"SMI": "Cc1cccnc1-c1cc2n(n1)CCN(Cc1cnc(C(F)(F)F)nc1N)C2", "ANSWER LABEL": "class 0"}
{"SMI": "Fc1cccnc1-c1cc2n(n1)CCN(Cc1c[nH]c3ccccc13)C2", "ANSWER LABEL": "class 1"}
{"SMI": "Cc1cccnc1-c1cc2n(n1)CCN(Cc1cnn3c1CCCC3)C2", "ANSWER LABEL": "class 0"}
{"SMI": "Cc1ccc(CN2CCn3nc(-c4ncccc4C)cc3C2)cc1C#N", "ANSWER LABEL": "class 1"}
{"SMI": "Cc1cccnc1-c1cc2n(n1)CCN(Cc1ccc(OC(F)(F)F)cc1C#N)C2", "ANSWER LABEL": "class 1"}
{"SMI": "Cc1cccnc1-c1cc2n(n1)CCN(Cc1ccc(C(F)(F)F)c(C#N)c1)C2", "ANSWER LABEL": "class 0"}
{"SMI": "c1ccc(-c2cc3n(n2)CCN(Cc2n[nH]c4ccccc24)C3)nc1", "ANSWER LABEL": "class 1"}
{"SMI": "FC(F)(F)c1cccnc1-c1cc2n(n1)CCN(Cc1ccccc1)C2", "ANSWER LABEL": "class 0"}
{"SMI": "Cc1cccnc1-c1cc2n(n1)CCN(Cc1ccc(C(F)(F)F)cc1)C2", "ANSWER LABEL": "class 0"}
{"SMI": "Cc1cccc(CN2CCn3nc(-c4ncccc4C)cc3C2)n1", "ANSWER LABEL": "class 0"}
{"SMI": "Clc1c(-c2ccccn2)nn2c1CN(Cc1ccccc1)CC2", "ANSWER LABEL": "class 1"}
{"SMI": "Cc1ccc(CN2CCn3nc(-c4ncccc4C)cc3C2)c(N)n1", "ANSWER LABEL": "class 1"}
{"SMI": "Cc1c(-c2ccccn2)nn2c1CN(Cc1ccc(C(F)(F)F)cn1)CC2", "ANSWER LABEL": "class 1"}
{"SMI": "Cc1ccc(CN2CCn3nc(-c4ccccn4)cc3C2)nc1N", "ANSWER LABEL": "class 1"}
{"SMI": "Cc1cccnc1-c1cc2n(n1)CCN(Cc1cccc(C(F)(F)F)c1)C2", "ANSWER LABEL": "class 0"}
{"SMI": "Cc1ncc(CN2CCn3nc(-c4ccccn4)c(Cl)c3C2)c(N)n1", "ANSWER LABEL": "class 0"}
{"SMI": "Cc1cccnc1-c1cc2n(n1)CCN(Cc1cc3c(cn1)OCC3)C2", "ANSWER LABEL": "class 0"}
{"SMI": "Cn1nc2ccccc2c1CN1CCn2nc(-c3ncccc3F)cc2C1", "ANSWER LABEL": "class 0"}
{"SMI": "Cc1cccnc1-c1cc2n(n1)CCN(Cc1n[nH]c3cccc(C)c13)C2", "ANSWER LABEL": "class 0"}
{"SMI": "Cc1c(-c2ncccc2F)nn2c1CN(Cc1ccc(C(F)(F)F)cc1)CC2", "ANSWER LABEL": "class 0"}
{"SMI": "Cc1ccc(CN2CCn3nc(-c4ncccc4C)cc3C2)nc1C", "ANSWER LABEL": "class 1"}
{"SMI": "Cc1ccc(CN2CCn3nc(-c4ccccn4)cc3C2)c(N)n1", "ANSWER LABEL": "class 0"}
{"SMI": "Cc1cccnc1-c1cc2n(n1)CCN(Cc1ccc(CF)c(C)n1)C2", "ANSWER LABEL": "class 1"}
